Recorded values, source patent US7491729B2.

Reported Ki for target or system UniProtKB P28222, by entry.
Sequence (P28222 whole entry): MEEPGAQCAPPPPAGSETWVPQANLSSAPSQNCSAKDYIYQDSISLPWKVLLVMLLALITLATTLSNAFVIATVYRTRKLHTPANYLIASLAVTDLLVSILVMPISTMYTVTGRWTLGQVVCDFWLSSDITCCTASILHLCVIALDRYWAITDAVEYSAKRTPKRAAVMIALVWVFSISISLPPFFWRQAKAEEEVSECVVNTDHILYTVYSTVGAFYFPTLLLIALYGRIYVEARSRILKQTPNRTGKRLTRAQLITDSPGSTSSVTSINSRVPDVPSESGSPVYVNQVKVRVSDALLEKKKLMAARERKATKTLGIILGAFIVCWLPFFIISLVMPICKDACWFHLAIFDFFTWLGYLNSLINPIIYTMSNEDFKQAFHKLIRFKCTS
# value in nM; strip the unit string

CN1CCc2c(sc3ncn(CCN4CC=C(c5csc6ccccc56)CC4)c(=O)c23)C1    2
COc1ccc2[nH]cc(C3=CCN(CCn4cnc5sc6c(c5c4=O)CCN(C)C6)CC3)c2c1    0.6
CN1CCc2c(sc3ncn(CCN4CC=C(c5c[nH]c6ccccc56)CC4)c(=O)c23)C1    1

Now take the following molecule into account.
Test system UniProtKB P28222; read-out Ki; what value for CN1CCc2c(sc3ncn(CCN4CC=C(c5c[nH]c6ncccc56)CC4)c(=O)c23)C1 [Example 21, acetate] ?
1
